# System: protein-tyrosine kinase
# test-description: Protein-Tyrosine Kinase Assay (human skin/hair follicle extract, Calbiochem kit)
# Assay type: biochemical
# condition-context: inhibitor 1 mM, human skin supernatant fraction
Catalogue of % Inhibition (protein-tyrosine kinase activity) readings, one per entry.
reported-metric: % Inhibition (protein-tyrosine kinase activity) (%)

* N#CC(=Cc1ccc(O)c(O)c1)C(N)=S [Tryphostin A47, α-cyano-(3,4-dihydroxy)thiocinnamide] | 16
* CO[C@H]1[C@@H](OC)C[C@H](C)[C@@H](OC)C2=CC(=O)C=C(NC(=O)/C(C)=C/C=C\[C@H](OC)[C@@H](OC(N)=O)/C(C)=C/[C@@H]1C)C2=O [Herbimycin, herbimycin A] | 37
* CC(=O)OCOC(c1ccc2ccccc2c1)P(=O)(OCOC(C)=O)OCOC(C)=O (centres unmarked) [HNMPA(AM)3] | 66
* O=C(O)c1cc(N(Cc2ccccc2O)Cc2cc(O)ccc2O)ccc1O [Lavendustin A, lavendustin A] | 59
* COC(=O)/C=C/c1ccc(O)c(O)c1 [methyl caffeate] | 100
